Parameter: pIC50. Scope: all listed entries.
- Assayed System: viral kinase pUL-97 (Human cytomegalovirus, UniProt P16788)
- Construct: The pUL-97 gene was cloned into a baculovirus vector; GST (glutathione S-transferase) (N); made in house; host or cells: Sf9 insect cells, baculovirus
- Sequence (P16788 whole entry): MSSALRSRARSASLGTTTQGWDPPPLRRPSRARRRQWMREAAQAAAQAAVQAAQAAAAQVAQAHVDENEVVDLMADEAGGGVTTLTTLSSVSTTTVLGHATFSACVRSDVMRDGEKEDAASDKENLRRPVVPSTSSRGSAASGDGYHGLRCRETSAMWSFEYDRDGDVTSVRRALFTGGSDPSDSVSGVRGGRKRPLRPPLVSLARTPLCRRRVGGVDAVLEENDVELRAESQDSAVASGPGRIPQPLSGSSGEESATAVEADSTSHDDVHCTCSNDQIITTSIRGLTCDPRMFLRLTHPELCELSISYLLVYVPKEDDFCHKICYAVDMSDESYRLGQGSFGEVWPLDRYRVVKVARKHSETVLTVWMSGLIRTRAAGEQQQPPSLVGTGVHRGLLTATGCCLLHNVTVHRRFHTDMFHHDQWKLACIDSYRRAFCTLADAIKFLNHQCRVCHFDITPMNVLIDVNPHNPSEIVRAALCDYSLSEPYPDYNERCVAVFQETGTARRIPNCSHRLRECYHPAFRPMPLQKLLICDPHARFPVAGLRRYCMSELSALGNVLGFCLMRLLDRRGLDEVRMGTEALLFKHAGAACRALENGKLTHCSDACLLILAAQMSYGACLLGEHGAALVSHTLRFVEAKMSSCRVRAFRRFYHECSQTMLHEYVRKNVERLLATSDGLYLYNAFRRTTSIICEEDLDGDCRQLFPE
- Assay Text: UL97 kinase assay on Immobilon plate
- Format: biochemical
- Run Parameters: inhibition of UL 97 kinase activity; class by IC50 / % inhibition at 10 or 100 μM; read-out: Activity Class [A, B, C]
pIC50: −log10 of the molar value.

Solved cases (3 shown):
c1ccc(Oc2ccc(-c3cncc(N4CCN(c5ccncc5)CC4)n3)cc2)cc1    5.00 to 6.00
Cc1cccc(-c2cncc(N3CCN(c4cccc(C(F)(F)F)c4)CC3)n2)c1    4.00 to 5.00
Cc1ccc(-c2cncc(N3CCN(c4cccc(C(F)(F)F)c4)CC3)n2)cc1    4.00 to 5.00

// switching to the query compound
Item CSc1ccc(-c2cncc(N3CCN(c4ccc(C(C)=O)cc4)CC3)n2)cc1 : provide pIC50
> 6.00
